TESTED_TARGET: CRTH2 Receptor (Homo sapiens, UniProt Q9Y5Y4)
Sequence (Q9Y5Y4 whole entry): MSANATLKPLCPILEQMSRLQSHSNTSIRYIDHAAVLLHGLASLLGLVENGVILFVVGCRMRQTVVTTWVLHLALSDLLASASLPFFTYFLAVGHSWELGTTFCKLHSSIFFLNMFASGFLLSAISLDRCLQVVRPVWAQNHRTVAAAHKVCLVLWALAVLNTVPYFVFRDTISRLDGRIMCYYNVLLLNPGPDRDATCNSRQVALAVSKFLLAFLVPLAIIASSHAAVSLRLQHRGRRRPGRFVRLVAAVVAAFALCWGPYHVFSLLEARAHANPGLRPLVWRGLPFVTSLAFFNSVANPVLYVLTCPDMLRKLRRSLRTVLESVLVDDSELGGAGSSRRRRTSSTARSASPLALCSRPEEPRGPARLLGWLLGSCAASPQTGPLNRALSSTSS
ATTRIBUTE_MEASURED: pKi
Bear in mind: pKi is minus log10 of a mol/L concentration; give just that figure.

Below: 6 compounds and their reported pKi.
- CPD_SMILES: "Cc1c(Cc2ccccc2S(=O)(=O)C2CCCCC2)c2cc(F)ccc2n1CC(=O)O"
  VALUE_REPORTED: 10.70
- CPD_SMILES: "Cc1c(Cc2ccc(S(=O)(=O)C3CCCC3)cc2)c2cc(F)ccc2n1CC(=O)O"
  VALUE_REPORTED: 8.30
- CPD_SMILES: "Cc1c(Cc2cccc(S(=O)(=O)N3CCCC3)c2)c2cc(F)ccc2n1CC(=O)O"
  VALUE_REPORTED: 7.00
- CPD_SMILES: "Cc1c(Cc2ccc(S(=O)(=O)C3CCCCC3)cc2)c2cc(F)ccc2n1CC(=O)O"
  VALUE_REPORTED: 8.70
- CPD_SMILES: "Cc1c(Cc2ccc(S(=O)(=O)N3CCCCC3)cc2)c2cc(F)ccc2n1CC(=O)O"
  VALUE_REPORTED: 9.00
- CPD_SMILES: "Cc1c(Cc2ccccc2S(=O)(=O)N2CCCCC2)c2cc(F)ccc2n1CC(=O)O"
  VALUE_REPORTED: 10.40

Alright, here's another compound for you.
Entry Cc1c(Cc2ccccc2S(=O)(=O)C2CCC2)c2cc(F)ccc2n1CC(=O)O under CRTH2 Receptor (Homo sapiens, UniProt Q9Y5Y4) had pKi of 8.52

###

Test system: PGD2 induced eosinophil shape change
EXPERIMENT: Human whole blood eosinophil shape change assay
Assay type: cell-based
RUN_PARAMETERS: Eosinophil; human whole blood; 10 nM PGD2; read-out: IC50 Values for the Effect of Test Compounds on 10 nM PGD2-induced Eosinophil Shape Change
ATTRIBUTE_MEASURED: IC50 (nM)
Give the value, in units of nM, as a plain number.

Below: 2 compounds and their reported IC50.
- COMPOUND: "Cc1c(Cc2ccccc2S(=O)(=O)N2CCCCC2)c2cc(F)ccc2n1CC(=O)O [Compound 2]"
  ATTRIBUTE_MEASURED: "IC50"
  VALUE_REPORTED: 5
- COMPOUND: "Cc1c(Cc2ccccc2S(=O)(=O)C2CCC2)c2cc(F)ccc2n1CC(=O)O [Compound 8]"
  ATTRIBUTE_MEASURED: "IC50"
  VALUE_REPORTED: 240

Alright, here's another compound for you.
Entry Cc1c(Cc2ccc(S(=O)(=O)C3CCCC3)cc2)c2cc(F)ccc2n1CC(=O)O [Compound 7] under PGD2 induced eosinophil shape change had IC50 of 44

###

System: PGD2 induced eosinophil shape change
EXPERIMENT: Human whole blood eosinophil shape change assay
Assay type: cell-based
RUN_PARAMETERS: Eosinophil; human whole blood; 10 nM PGD2; read-out: IC50 Values for the Effect of Test Compounds on 10 nM PGD2-induced Eosinophil Shape Change
ATTRIBUTE_MEASURED: pIC50
Bear in mind: pIC50 is minus log10 of a mol/L concentration; give just that figure.

Below: 2 compounds and their reported pIC50.
- COMPOUND: "Cc1c(Cc2ccccc2S(=O)(=O)N2CCCC2)c2cc(F)ccc2n1CC(=O)O [Compound 5]"
  VALUE_REPORTED: 8.30
- COMPOUND: "Cc1c(Cc2ccccc2S(=O)(=O)C2CCCCC2)c2cc(F)ccc2n1CC(=O)O [Compound 1]"
  VALUE_REPORTED: 8.22

Reported pIC50 for Cc1c(Cc2ccccc2S(=O)(=O)C2CCCC2)c2cc(F)ccc2n1CC(=O)O [Compound 3] was 8.15

Reported pIC50 for Cc1c(Cc2ccc(S(=O)(=O)C3CCCCC3)cc2)c2cc(F)ccc2n1CC(=O)O [Compound 6] was 7.07
